EC50: recorded values
- System: CEM cells HIV-1 protection, formazan growth assay
- assay overview: NCI AIDS Antiviral Assay
readout: EC50

# molecule, readout, result
measured = [
    ("CC(C)C(O)C(=O)C(Sc1ccccc1)C(C)C (stereo unspecified)", "EC50", "> 355 µM"),
    ("CCOC(=O)c1ccc(C(O)CC(=O)OC(C)(C)C)[nH]1 (stereo unspecified)", "EC50", "> 200 µM"),
    ("C=CCSc1nn(CC=C)cc2ncnc1-2", "EC50", "> 200 µM"),
    ("O=c1ccc2nc3ccc(O)cc3oc-2c1", "EC50", "> 200 µM"),
    ("CN(C)c1ccc(/C=C(\\C#N)c2cccc(I)c2)cc1", "EC50", "> 2 µM"),
    ("Cc1cc(S(=O)(=O)Nc2nc(Nc3ccc(Cl)cc3)nn2C)c(S)cc1Cl", "EC50", "> 200 µM"),
]
